Tested on: alternative oxidase (AOX)
Method: AOX inhibitors, oxygen consumption, profiling panel (AID 1259412)
Study Conditions: AOX-dependent respiration, at 500 µM, stronger effect = lower value
Class (by O2 uptake (% of control)) -- b0 = under 20%, b1 = from 20% up to 40%, b2 = 40% and over

Line Notation: COc1cccc(C(=O)Nc2cccc(F)c2)c1
Label Class: b2

Line Notation: O=C(NCc1ccc2c(c1)OCO2)c1cccc(Cl)c1
Label Class: b0

Line Notation: Cc1cccc(C(=O)NCc2ccc3c(c2)OCO3)c1
Label Class: b1

API: the following record is the query input.
Lookup: In plain terms, what class is O=C(Nc1cccc([N+](=O)[O-])c1)c1cccc(Br)c1 ?
Found: b1

====

Method: AOX inhibitors, oxygen consumption, profiling panel (AID 1259412)
Study Conditions: AOX-dependent respiration, measured here: O2 uptake, control condition (no AOX), at 500 µM, stronger effect = lower value
Metric Name: O2 uptake (% of control) (%)
The figure you give is taken to be in %; do not add the unit.

Past entries and their recorded results:
Line Notation: COc1cc(NC(=O)c2cccc(Cl)c2)cc(OC)c1OC
Metric Name: O2 uptake (% of control)
Result Unit: %
Test Value: 97.8
--
Line Notation: COc1cc(NC(=O)c2ccccc2I)cc(OC)c1OC
Metric Name: O2 uptake (% of control)
Result Unit: %
Test Value: 92.4
--
Line Notation: NC(=O)c1ccccc1NC(=O)c1ccccc1
Metric Name: O2 uptake (% of control)
Result Unit: %
Test Value: 93.9

Kindly consider the entry below.
Lookup: Given the compound O=C(Nc1cccc(Br)c1)c1ccccc1 , what is its reported O2 uptake (% of control)?
Found: 88.5

====

Method: AOX inhibitors, oxygen consumption, profiling panel (AID 1259412);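 on growth (% of control): growth monitored over 72 h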
Study Conditions: AOX-dependent respiration, O2 uptake; measured here: growth, AOX-dependent treatment condition; at 500 µM; stronger effect = lower value
Label YES when growth (% of control) is strictly below 70%; otherwise label NO.

Line Notation: O=C(Nc1cccc(Br)c1)c1cccc(I)c1
Label Class: NO
--
Line Notation: O=C(Nc1ccc(N2CCOCC2)cc1)c1cccc(I)c1
Label Class: NO
--
Line Notation: O=C(Nc1cccc(F)c1)c1cccc(F)c1
Label Class: YES
--
Line Notation: O=C(Nc1cccc(I)c1)c1cccc(F)c1
Label Class: YES

Lookup: # strict comparison: is reported growth (% of control) < 70%? input = N#Cc1cccc(C(=O)Nc2cccc(C(F)(F)F)c2)c1
Found: YES

Lookup: API: query returns whether the compound falls strictly under 70% in growth (% of control). Query: O=C(Nc1cccc(I)c1)c1cccc(Cl)c1
Found: YES

Lookup: I'd appreciate it if you could check whether Nc1cccc(S(=O)(=O)c2cccc(NC(=O)c3cccc(Br)c3)c2)c1 has growth (% of control) smaller than 70%.
Found: NO

====

Method: AOX inhibitors, oxygen consumption, profiling panel (AID 1259412);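 on growth (% of control): growth monitored over 72 h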
Study Conditions: AOX-dependent respiration, O2 uptake; measured here: growth, control condition; at 500 µM
Metric Name: growth (% of control) (%)
Numbers only here, please. The scale is %.

Recorded growth (% of control), per entry:
Line Notation: COc1cccc(C(=O)Nc2ccccc2C(N)=O)c1
growth (% of control) [%]: 82.1

Line Notation: O=C(Nc1cccc(I)c1)c1ccccc1I
growth (% of control) [%]: 94.8

Line Notation: O=C(Nc1cccc(NC(=O)c2cccc(F)c2)c1)c1cccc(F)c1
growth (% of control) [%]: 133

Line Notation: O=C(Nc1ccc(N2CCOCC2)cc1)c1ccccc1I
growth (% of control) [%]: 96.2

Line Notation: Cc1cccc(C(=O)Nc2cccc([N+](=O)[O-])c2)c1
growth (% of control) [%]: 80.2

Lookup: Fill in the blank: the reported growth (% of control) of O=C(Nc1cccc(NC(=O)c2cccc(Br)c2)c1)c1cccc(Br)c1 is ____.
Found: 95.3

Lookup: Please report the recorded growth (% of control) for O=C(Nc1ccc(N2CCOCC2)cc1)c1cccc(I)c1 .
Found: 99.3

====

Method: AOX inhibitors, oxygen consumption, profiling panel (AID 1259412);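 on growth (% of control): growth monitored over 72 h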
Study Conditions: AOX-dependent respiration, O2 uptake; measured here: growth, AOX-dependent treatment condition; at 500 µM; stronger effect = lower value
Items are presented alongside their recorded growth (% of control).

Reference set (8 entries):
Line Notation: Cc1cccc(C(=O)Nc2ccc(N3CCOCC3)cc2)c1
growth (% of control): 91%

Line Notation: O=C(Nc1cccc(NC(=O)c2cccc(Br)c2)c1)c1cccc(Br)c1
growth (% of control): 77.6%

Line Notation: O=C(Nc1cccc(Cl)c1)c1cccc(F)c1
growth (% of control): 17.8%

Line Notation: O=C(Nc1ccccc1)c1cccc(Br)c1
growth (% of control): 75%

Line Notation: O=C(Nc1cccc(C(F)(F)F)c1)c1cccc(F)c1
growth (% of control): 7.63%

Line Notation: COc1cccc(C(=O)Nc2cccc(C(F)(F)F)c2)c1
growth (% of control): 11.8%

Line Notation: N#Cc1cccc(C(=O)Nc2ccc(N3CCOCC3)cc2)c1
growth (% of control): 96.5%

Line Notation: O=C(Nc1cccc(I)c1)c1cccc(I)c1
growth (% of control): 87.3%

Lookup: What value of measured growth (% of control) is listed for O=C(Nc1cccc(Cl)c1)c1cccc(I)c1 ?
Found: 73%

Lookup: Any idea what growth (% of control) was measured for O=C(NCc1ccc2c(c1)OCO2)c1ccccc1 ?
Found: 56.1%

Lookup: Reported growth (% of control) for O=C(Nc1cccc(C(F)(F)F)c1)c1cccc(I)c1 : what is it?
Found: 49.4%

Lookup: Need growth (% of control), item O=C(Nc1cccc(NC(=O)c2cccc(F)c2)c1)c1cccc(F)c1
Found: 113%

====

Method: AOX inhibitors, oxygen consumption, profiling panel (AID 1259412);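 on growth (% of control): growth monitored over 72 h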
Study Conditions: AOX-dependent respiration, O2 uptake; measured here: growth, AOX-dependent treatment condition; at 500 µM; stronger effect = lower value
Metric Name: growth (% of control) (%)
Report only the number, with the unit % understood.

Below: 3 molecules and their reported growth (% of control).
Line Notation: O=C(Nc1ccccc1)c1cccc(I)c1
growth (% of control) (%): 67.8
//
Line Notation: O=C(Nc1cccc(C(F)(F)F)c1)c1ccccc1
growth (% of control) (%): 38.9
//
Line Notation: N#Cc1cccc(C(=O)NCc2ccc3c(c2)OCO3)c1
growth (% of control) (%): 79.6

Lookup: growth (% of control) for O=C(Nc1cccc(OCc2ccccc2)c1)c1ccccc1 ?
Found: 99.7

Lookup: I have this molecule here, COc1cc(NC(=O)c2cccc(C)c2)cc(OC)c1OC , and I need its recorded growth (% of control).
Found: 85.5

====

Test system: alternative oxidase (AOX)
Method: AOX inhibitors, oxygen consumption, profiling panel (AID 1259412)
Study Conditions: AOX-dependent respiration, at 500 µM, stronger effect = lower value
Listed next: entries and their corresponding O2 uptake (% of control).
Numeric answer only, unit % assumed.

Below are worked cases with known answers.
Line Notation: O=C(Nc1cccc(C(F)(F)F)c1)c1cccc(I)c1
Tested On: alternative oxidase (AOX)
Test Value: 17.5
--
Line Notation: O=C(Nc1ccc(N2CCOCC2)cc1)c1ccccc1I
Tested On: alternative oxidase (AOX)
Test Value: 59.6
--
Line Notation: COc1cccc(C(=O)Nc2cc(OC)c(OC)c(OC)c2)c1
Tested On: alternative oxidase (AOX)
Test Value: 77.6
--
Line Notation: O=C(Nc1cccc(Cl)c1)c1cccc(Cl)c1
Tested On: alternative oxidase (AOX)
Test Value: 9.19

Turning now to a further record.
Lookup: Quick one: O2 uptake (% of control) for O=C(Nc1cccc(C(F)(F)F)c1)c1ccccc1I ?
Found: 14.3

====

Tested on: alternative oxidase (AOX)
Method: AOX inhibitors, oxygen consumption, profiling panel (AID 1259412)
Study Conditions: AOX-dependent respiration, at 500 µM, stronger effect = lower value
Metric Name: O2 uptake (% of control) (%)
Write the answer as a number in %, unit excluded.

Sample records with O2 uptake (% of control):
Line Notation: O=C(Nc1cccc(C(F)(F)F)c1)c1cccc(Br)c1
Test Value: 22.3

Line Notation: Nc1cccc(S(=O)(=O)c2cccc(NC(=O)c3cccc(Br)c3)c2)c1
Test Value: 110

Line Notation: O=C(Nc1cccc(Br)c1)c1cccc(Br)c1
Test Value: 16.5

Lookup: What O2 uptake (% of control) value was documented for this compound, O=C(Nc1ccc(N2CCOCC2)cc1)c1cccc(Cl)c1 ?
Found: 81.3

Lookup: What value of O2 uptake (% of control) has been reported for the following compound? O=C(Nc1cccc(Br)c1)c1ccccc1
Found: 15.7

Lookup: Return reported O2 uptake (% of control); argument: O=C(Nc1cccc(OCc2ccccc2)c1)c1cccc(Br)c1
Found: 88.7

Lookup: I have this compound here, COc1cccc(C(=O)Nc2ccccc2)c1 , and I need its recorded O2 uptake (% of control).
Found: 57.1

Lookup: Returns the measured O2 uptake (% of control) for the input compound. Input: O=C(Nc1ccccc1)c1cccc(F)c1
Found: 61.8

Lookup: // O2 uptake (% of control) lookup, key: O=C(Nc1cccc(NC(=O)c2cccc(Br)c2)c1)c1cccc(Br)c1
Found: 66.5

Lookup: Return reported O2 uptake (% of control); argument: O=C(Nc1cccc(I)c1)c1ccccc1I
Found: 13.1

Lookup: Would you kindly share the measured O2 uptake (% of control) for O=C(Nc1cccc(Br)c1)c1ccccc1I ?
Found: 10.4

Lookup: Quick check: O2 uptake (% of control) of O=C(Nc1cccc([N+](=O)[O-])c1)c1cccc(I)c1 ?
Found: 21
